Exercise: state measured viability, T/C for each of the compounds provided.
Tested on: 565726-208-R1-J5-PDC complex spheroids, growth inhibition;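 also: spheroids exposed to compounds for seven days before readout; 100% = DMSO vehicle control viability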
Experiment: Anticancer human tumor 565726-208-R1-J5-PDC patient-derived pancreatic adenocarcinoma cell line growth inhibition [RAS]
Conditions: second compound 0.0949 µM; first compound 0.01 µM; active compounds read low
Answers are plain numbers, in %.

C=CC(=O)Nc1cc(Nc2nccc(-c3cn(C)c4ccccc34)n2)c(OC)cc1N(C)CCN(C)C + CCn1c(-c2cc(N3CCN(C)CC3)cnc2C(C)OC)c2c3cc(ccc31)-c1csc(n1)CC(NC(=O)C1CC1C)C(=O)N1CCCC(N1)C(=O)OCC(C)(C)C2 : 24.6

Next compound, please.
Task: Consider the compound Nc1ccn(C2OC(CO)C(O)C2(F)F)c(=O)n1 (configuration not stated) + CCn1c(-c2cc(N3CCN(C)CC3)cnc2C(C)OC)c2c3cc(ccc31)-c1csc(n1)CC(NC(=O)C1CC1C)C(=O)N1CCCC(N1)C(=O)OCC(C)(C)C2 and give its recorded viability, T/C.
Output: 26.9
